Data origin: ChEMBL document CHEMBL4396973

Target: Prothrombin (Homo sapiens, UniProt P00734)
Test: Inhibition of human recombinant C-terminal 10-His-tagged thrombin (M1 to E622 residues) expressed in mouse NS0 cells using BOC-VPR-AMC as substrate incubated for 40 mins by FLINT assay
measurement_name: IC50 (µM)

// below: answered compounds
> print(dat)
                                   compound  reported.result
1  N=C(N)c1ccc(C2Cc3ccc(C(F)(F)F)cc3B(O)O2)cc1OCc1cccnc1 (racemic)             3.98
2  COc1ccc2c(c1)C(Cc1ccc(C(=N)N)c(OCc3cccnc3)c1)OB2O (racemic)             31.6
3  N=C(N)c1ccc(CC2OB(O)c3cc(C(F)(F)F)ccc32)cc1OCc1cccnc1 (racemic)               20
4  N=C(N)c1ccc(C2Cc3ccccc3B(O)O2)cc1OCc1cccc(Cl)c1 (racemic)            0.398
5  N=C(N)c1ccc(C2Cc3ccccc3B(O)O2)cc1OCc1ccccc1Cl (racemic)             3.16
6  Cc1cccc2c1B(O)OC(c1ccc(C(=N)N)c(OCc3cccnc3)c1)C2 (racemic)             3.16
7  Cl.N=C(N)c1ccc([C@H]2Cc3ccc(C(F)(F)F)cc3B(O)O2)cc1OCc1cccnc1             1.26

P = N=C(N)c1ccc([C@@H]2Cc3ccc(C(F)(F)F)cc3B(O)O2)cc1OCc1cccnc1
Q = N=C(N)c1ccc(C2Cc3ccc(F)cc3B(O)O2)cc1OCc1cccnc1 (racemic)
Problem: Given the entries P and Q , determine which has the lower reported IC50. Give the chosen item's label as your response.
Q

---

Molecular target: Kallikrein-1 (Homo sapiens, UniProt P06870)
Test: Inhibition of human recombinant N-terminal His-tagged and enterokinase cleavage site-fused KLK1 (19 to 262 residues) expressed in baculovirus infected Sf9 insect cells using R110 labelled GSK3162232A as substrate measured at 30 secs interval for 5 mins by FLINT assay
measurement_name: IC50 (µM)

> print(dat)
                                   compound  measurement.name  reported.result
1      N=C(N)c1cccc(COc2ccc3c(c2)B(O)OC3)c1              IC50              158
2  Cl.N=C(N)c1ccc([C@H]2Cc3ccc(C(F)(F)F)cc3B(O)O2)cc1OCc1cccnc1              IC50            0.251
3       N=C(N)c1ccc(Oc2ccc3c(c2)B(O)OC3)cc1              IC50             25.1
4  N=C(N)c1ccc(C2Cc3ccc(C(F)(F)F)cc3B(O)O2)cc1OCc1cccnc1 (racemic)              IC50            0.398

I = N=C(N)c1cccc(C2Cc3ccccc3B(O)O2)c1 (racemic)
II = N=C(N)c1ccc(C2Cc3ccccc3B(O)O2)cc1OCc1cccc(Cl)c1 (racemic)
III = N=C(N)c1ccc(COc2cccc3c2B(O)OC3)cc1
I would appreciate it if you could sort these 3 compounds by IC50, starting from the smallest number. A ranking is expressed here by listing the labels in the requested order.
I, II, III

---

Target: Coagulation factor X (Homo sapiens)
Assay: Inhibition of recombinant human C-terminal 10-His-tagged factor Xa (L24 to K488 residues) expressed in baculovirus infected Sf21 insect cells using Mca-RPKPVE-Nval-WRK(Dnp)-NH2 as substrate incubated for 40 mins by FLINT assay
measurement_name: IC50 (µM)

// below: answered compounds
> print(dat)
                                   compound  units.of.measure  reported.result
1  N=C(N)c1ccc(C2Cc3cc(Cl)c(F)cc3B(O)O2)cc1OCc1cccnc1 (racemic)                µM             5.01
2  N=C(N)c1ccc([C@@H]2Cc3ccc(C(F)(F)F)cc3B(O)O2)cc1OCc1cccnc1                µM             3.98
3  N=C(N)c1ccc(CC2OB(O)c3cc(C(F)(F)F)ccc32)cc1OCc1cccnc1 (racemic)                µM             31.6
4  COc1ccc2c(c1)C(Cc1ccc(C(=N)N)c(OCc3cccnc3)c1)OB2O (racemic)                µM             79.4

P = N=C(N)c1ccc(CC2OB(O)c3cc(F)ccc32)cc1OCc1cccnc1 (racemic)
Q = N=C(N)c1ccc(C2Cc3ccccc3B(O)O2)cc1OCc1cccc(Cl)c1 (racemic)
Problem: Given the entries P and Q , determine which has the lower reported IC50. Give the chosen item's label as your response.
Q
(Q: 2 µM, P: 5.01 µM)
